System: SW-620 colon
Experiment: NCI tumour cell line growth inhibition, 48 h; in the data active = GI50 below about 0.43 µM; inactive = the rest
Possible outcomes: True = active, False = inactive

| Compound | Class Label |
| --- | --- |
| O=C1C(=O)c2cccnc2-c2ncccc21 | True |
| N#C/C(=C\c1ccc(Br)cc1)n1nnc2ccc(F)cc21 | False |
| C=C1CC2(OC1=O)C(=O)Nc1ccccc12 (stereo unspecified) | False |
| CN(C)c1ccc(/C=C/c2cc[n+](C)c(/C=C/c3ccc(N(C)C)cc3)c2)cc1 | True |
| COc1cc(-c2nc(SCCC(C)C)nc(Nc3ccc(S(N)(=O)=O)cc3)c2C#N)cc(OC)c1OC | False |
| CCNC(=O)O[C@H]1CN[C@H](C#Cc2cc3ncnc(Nc4ccc(OCc5cccc(F)c5)c(Cl)c4)c3s2)C1 | False |
